# System: MS2 coat protein
# method.description: apparent KD of MS2 coat protein; designed switch direction (-1 OFF switch, 1 ON switch): 1; higher = weaker reporter binding
# assay.conditions: Eterna round: R95; input ligand: microRNA oligo, concentration not stated
# Lookup of reported apparent KD of MS2 coat protein keyed by entry
State the answer as a number, implicitly in nM.

Here is how some sequences turned out for apparent KD of MS2 coat protein.
INSERT INTO assay_data (record_sequence, units_of_measure, endpoint_value) VALUES
  ('UGUCCAGCCUGAGCUGGACAAAAGCAUGUACAUGAGGAUCACCCAUGUUCAUGUACAAGCUUUUUGCUCGUCUUAUU [salish99_208a_r3_048] (puzzle: Sensor for hsa-mir-208a)', 'nM', 14.1),
  ('GUAGAUAUAAAGGAGGAUAUUCAAUGAGAGACAUGAGGAUCACCCAUGUGAGAGUGAGAUGAUAGGAAGAAGGCUUAGAGAGAUG [Altered State 2-6 - Jieux - Same State 2] (puzzle: Same State 2)', 'nM', 54.9),
  ('CGUCCGGCCUGAGCUGGUCGGAAGCAUGUACAUGAGGAUCACCCAUGUUCAUGUGCAGGCUUUUUGCUCGUCUUGUG [salish99_mir208a_modof_jandersonlee_004] (puzzle: Sensor for hsa-mir-208a)', 'nM', 13.1),
  ('AUUUAACAAGCUUUUUGCUCGUCUUAUAAACAUGAGGAUCACCCAUGUAAUAGCGUGAGAGUAAAUUAUUAAAUAAU [JMF 91] (puzzle: Sensor for hsa-mir-208a)', 'nM', 39.9);

Now consider the entry below.
Task: Please respond with reported apparent KD of MS2 coat protein (system MS2 coat protein) for AAGUAACAUGAGGAUCACCCAUGUGAGGUGAGCGUAGGAUAUCGAGGAGGAAGGGUGGAGCGAGAAGGACGAGAAG [JR_SS1_Sub097] (puzzle: Same State 1) .
Result: 262

###

# Lookup of reported apparent KD of MS2 coat protein keyed by entry
# Tested on: MS2 coat protein
# method.description: apparent KD of MS2 coat protein; designed switch direction (-1 OFF switch, 1 ON switch): 1; higher = weaker reporter binding
# assay.conditions: Eterna round: R95; input ligand: microRNA oligo, concentration not stated
State the answer as a number, implicitly in µM.

Here is how some sequences turned out for apparent KD of MS2 coat protein.
INSERT INTO measurements (record_sequence, endpoint_value) VALUES
  ('AUCCUACAUGAGGAUCACCCAUGUGACGCCUCAAUAGGAUAUCGGGCCCACAGUCAGGAACGAGAAGGAUUGAAGC [Digerier] (puzzle: Same State 1)', 0.0293),
  ('AUAAGGCAAGCUUUUUUCUCGUAGUGUAAACAUGAGGAUCACCCAUGUGCCCACCCUGGAUCUUUGGAUCCCAGAAC [Sobeedbeon] (puzzle: Sensor for hsa-mir-208a)', 0.0153),
  ('AACAAUCUAUCUGAGGAUAUCAUGAAAUAAACAUGAGGAUCACCCAUGUGCAGGAAAACUGCAUAUGAGAAGGCUGAUAGAUUGA [salish99_ss2_r3_051] (puzzle: Same State 2)', 0.574),
  ('AACAAUCUAUCUGAGGAUAUCAUGUAAUAAACAUGAGGAUCACCCAUGUGCAGGAAAACUGCAUAUGAGAAGGCAGAUAGAUUGA [salish99_ss2_r3_030] (puzzle: Same State 2)', 0.134),
  ('AACUAUCUAUCUCAGGAUAUCAUGUCAAAGACAUGAGGAUCACCCAUGUACCAGGAAACUGGUUAUGAGAAGGGAGAUAGAUAGG [Mat - Same State 2 - Mod - D42] (puzzle: Same State 2)', 0.0648);

Task: Identify measured apparent KD of MS2 coat protein associated with GGUCCAGCCUGAGCUGGACAAAAGCAUGUACAUGAGGAUCACCCAUGUCAUGUACAAGCUUUUUGCUCGUCUUAAUU [Mat - hsa-mir-208a - 87] (puzzle: Sensor for hsa-mir-208a)
Result: 0.0151

Task: Identify measured apparent KD of MS2 coat protein associated with AUGGUGCAGGUACAGGAUAUGUUGCUCGUAACAUGAGGAUCACCCAUGUACCUAUGAGAUUAAAUGCAGAAGGGUGCACACCAAA [Mat - Same State 2 - Mod of UCT - D90] (puzzle: Same State 2)
Result: 0.507

###

# Tested on: MS2 coat protein
# method.description: apparent KD of MS2 coat protein; designed switch direction (-1 OFF switch, 1 ON switch): -1; higher = weaker reporter binding
# assay.conditions: input ligand: none
Classification field: enter TRUE for apparent KD of MS2 coat protein values not below 30 nM, FALSE for values below it.

Please review the entries below; each comes with its answer.
INSERT INTO results (record_sequence, test_target, label_class) VALUES
  ('UUAAUACAUGAGGAUCACCCAUGUCAGGAUAUUACGAUUACUCCGUGCCCAUUGAGAGUGAGAAGGGAUAUGGA [Eternabot (L2) Solution 58] (Eterna round: R97, puzzle: Exclusion 1)', 'MS2 coat protein', 'FALSE'),
  ('CGUUGUAUAGGAUAUACAUGAGGAUCACCCAUGUGAAAUUAUAGUGAGGAAAUGAAAAGUAGAAGGGUAUGACA [Mod of Mat 7 - Jieux - Exclusion 3] (Eterna round: R97, puzzle: Exclusion 3)', 'MS2 coat protein', 'TRUE'),
  ('AGGUAGUCAGGAUAUUAGGAGUAGCGGGAUAACGCUACGAGUGAGAAGGGACAUGAGGAUCACCCAUGUUUAUU [JR_Ex4_Sub069] (Eterna round: R97, puzzle: Exclusion 4)', 'MS2 coat protein', 'FALSE'),
  ('UCUGCCGCUGUGAGGAUAUGCCCAAAUAAAAGCGGGCAGAAGGCACAUGAGGAUCACCCAUGUCCUGCGGUUUU [salish99_bmx4_r4_143] (Eterna round: R97, puzzle: Brourd''s mod of Exclusion 4)', 'MS2 coat protein', 'FALSE'),
  ('AUCAGCUCGUCAGGAUAUACAUGCGUGCUUCGGCACGAAUUUAAGAUCACAUGAGGAUCACCCAUGUAGAAGGGACGAGCUGAU [ENG2/3-B3] (Eterna round: R96, puzzle: Exclusion NG 2)', 'MS2 coat protein', 'TRUE'),
  ('ACAUGUUGCGCAGGAUAUGGGACACAUGAGGAUCACCCAUGUGGUUUCAUGUCUAACCAAGCGUCCCAGAAGGGCGUGAACAUG [Ex NG2 #30] (Eterna round: R96, puzzle: Exclusion NG 2)', 'MS2 coat protein', 'FALSE');

Task: // inclusive: apparent KD of MS2 coat protein at least 30 nM? input: UUUUGGCAAGCGAGAUCCUACAUGAGGAUCACCCAUGUUGACCAUGGUUUCCAUGGUCUUUUUGCUCGUCUUGUGUG [jl TITIN mod 3] (Eterna round: R97, puzzle: Sensor, turn-off variant 1)
Result: FALSE

Task: // inclusive: apparent KD of MS2 coat protein at least 30 nM? input: CUCCGGCGUGUAGGAUAUGGAUCCGAUUAGGAUCCAGAAGGACAUGAGGAUCACCCAUGUACAUGUAGACGGUCGUCACCGGGC [salish99_ExNG1_r04_208] (Eterna round: R96, puzzle: Exclusion NG 1)
Result: TRUE

Task: // inclusive: apparent KD of MS2 coat protein at least 30 nM? input: CGAAUGUCAGGAUAUCGUGCAUACAACGAAAGUUCUAUGUGCGAGAAGGGACAUGAGGAUCACCCAUGUCUUCG [Omei Ex4 A14] (Eterna round: R97, puzzle: Exclusion 4)
Result: FALSE

Task: // inclusive: apparent KD of MS2 coat protein at least 30 nM? input: GGGUGCAGGCUGAGGUCCUACAUGAGGAUCACCCAUGUGGUCCGGUGACGUGAGUCACCGGACUUAGCUCGUCUUGU [salish99_S_TOV1_R5_009] (Eterna round: R97, puzzle: Sensor, turn-off variant 1)
Result: TRUE

###

# Test system: K4 kissing-loop RNA reporter
# method.description: apparent KD of K4 kissing-loop reporter; higher = weaker reporter binding
# assay.conditions: Eterna round: R107; input ligand: none
property.name: apparent KD of K4 kissing-loop reporter (nM)
State the answer as a number, implicitly in nM.

Here is how some sequences turned out for apparent KD of K4 kissing-loop reporter.
INSERT INTO results (record_sequence, property_name, endpoint_value) VALUES
  ('UCGCGUCUGUGAGGAUAUCAGAACAGAGUGAUGUUCUGUCAACGCCCAGUGAUGUUGGAUGCGAUCUGAGAAGGCACUGGGCGCA [Same State FMN B GF 9]', 'apparent KD of K4 kissing-loop reporter', 1320),
  ('GUGUAACGAGGAAACCUCGUUACACCCUCACGAGGACCGGUACGGCCGCCACUCGAGAGCUCGUGAGGAGUGAUGUUCCUCGUGA', 'apparent KD of K4 kissing-loop reporter', 441),
  ('UUUGGUUUCUCGGCCGCCACUCGUUGGUAAUGGGCCUCAGGGAUAUAGUGAUGUUAUGUAAAGAAGAGGACCGGGAGAAGGAAGG [ExTryptoB.Dn]', 'apparent KD of K4 kissing-loop reporter', 303),
  ('ACGUGCACCAGUGAUGUUGGAAAAUAUGAAGGAGCGGGUGAAAGCCCAGGUAGGUCGCAUAAUAGCACGAGCCACGAAAGUGGCA', 'apparent KD of K4 kissing-loop reporter', 184),
  ('UGCGCUGUGUCCUAAAAUGUCCUCCGGGAUACCAGAGUCUUUUUAUUCCCUUGGCAGCUUGAGUGAUGUUUGAUGCCGUUCUUGU [xxbxymullin]', 'apparent KD of K4 kissing-loop reporter', 790),
  ('UCGAUAGAGAGUGAUGUUCUCGUAUCAGAUACCAGUCACGCGAGUGACCCUUGGCAGCUGAUGUACAGCUGAGAGUAGUAUUCGA [Theo A Ex t8]', 'apparent KD of K4 kissing-loop reporter', 90.5);

Now consider the entry below.
Task: Please respond with reported apparent KD of K4 kissing-loop reporter (system K4 kissing-loop RNA reporter) for UAUAUAGUGACGGCCGCCACUAUAGUAAUGUUUUUGUUAGAGUGAUGUUUUGUUUUUUAAUUUUAUAGGACCGGGUUAUAUGUUA [llpmullin] .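 Note: bound reporter read as fluorescence of individual clusters on recovered sequencing chips by microscopy, with normalized cluster intensities fitted with a binding model.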
Result: 374
